Target: T1, SUMO-RRM F449A (Schizosaccharomyces pombe, UniProt Q9UTE3 388-540, F449A)
T1 sequence: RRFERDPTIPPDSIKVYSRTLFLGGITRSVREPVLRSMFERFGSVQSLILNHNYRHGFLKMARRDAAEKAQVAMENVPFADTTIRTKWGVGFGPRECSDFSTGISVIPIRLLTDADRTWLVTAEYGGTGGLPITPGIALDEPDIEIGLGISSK
Assay: fluorescence anisotropy; 25 mM Tris-HCl pH 8.0, 100 mM NaCl, 2 mM MgCl2, 1 mM DTT, 16.7% glycerol, 0.1% IGEPAL, 0.1 mg/ml tRNA, 2.5% RNasin, 25 C, 40 nM FAM-RNA
Settings: protein: recombinant; tags: N-terminal His6-SUMO; single strand
recordedEndpoint: Kd (nM)
// units = nM; emit number, no label

Query string: Tell us which Kd value is on record for AUUAGUAAAA (ssRNA) [FAM-AUUAGUAAAA RNA]
Result string: 1990
